Entries with their measured Kd, system Galectin-3 (Homo sapiens):

Some compounds with recorded Kd:
CNC(=O)c1cn([C@H]2[C@@H](O)[C@@H](CO)O[C@@H](S[C@@H]3O[C@H](CO)[C@H](O)[C@H](n4cc(C(=O)NC)nn4)[C@H]3O)[C@@H]2O)nn1    0.12 µM
C=CCNC(=O)c1cn([C@H]2[C@@H](O)[C@@H](CO)O[C@@H](S[C@@H]3O[C@H](CO)[C@H](O)[C@H](n4cc(C(=O)NCC=C)nn4)[C@H]3O)[C@@H]2O)nn1    0.065 µM
CS[C@@H]1O[C@H](CO)[C@H](O)[C@H](n2cc(C(=O)NCCCO)nn2)[C@H]1O    360 µM

Consider CO[C@@H]1O[C@H](CO)[C@@H](O[C@@H]2O[C@H](CO)[C@H](O)[C@H](n3cc(C(=O)Nc4cccc5ccccc45)nn3)[C@H]2O)[C@H](O)[C@H]1NC(C)=O . Its measured Kd is 0.66 µM

Consider CS[C@@H]1O[C@H](CO)[C@H](O)[C@H](n2cc(C(=O)NCCN3CCOCC3)nn2)[C@H]1O . Its measured Kd is 520 µM

Consider CO[C@@H]1O[C@H](CO)[C@@H](O[C@@H]2O[C@H](CO)[C@H](O)[C@H](NC(=O)c3ccc4ccccc4c3)[C@H]2O)[C@H](O)[C@H]1NC(C)=O . Its measured Kd is 0.48 µM

Consider CO[C@@H]1O[C@H](CO)[C@@H](O[C@@H]2O[C@H](CO)[C@H](O)[C@H](O)[C@H]2O)[C@H](O)[C@H]1NC(C)=O . Its measured Kd is 59 µM

Consider COc1cccc(-c2cn([C@H]3[C@@H](O)[C@@H](CO)O[C@@H](SC)[C@@H]3O)nn2)c1 . Its measured Kd is 130 µM

Consider CS[C@@H]1O[C@H](CO)[C@H](O)[C@H](n2cc(CO)nn2)[C@H]1O . Its measured Kd is > 5000 µM

Consider CO[C@@H]1O[C@H](CO)[C@@H](O[C@@H]2O[C@H](CO)[C@H](O)[C@H](n3cc(C(=O)NCc4ccccc4)nn3)[C@H]2O)[C@H](O)[C@H]1NC(C)=O . Its measured Kd is 1.5 µM

* * *

# TESTED SYSTEM: Galectin-7 (Homo sapiens, UniProt P47929)
# Sequence (P47929 whole entry): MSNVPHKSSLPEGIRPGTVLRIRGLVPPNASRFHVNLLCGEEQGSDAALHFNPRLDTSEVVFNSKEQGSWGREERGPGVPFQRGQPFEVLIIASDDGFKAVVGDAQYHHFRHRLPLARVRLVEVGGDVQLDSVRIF
// Kd lookup, one value per entry
Only the number, expressed in µM, is required.

Some compounds with recorded Kd:
CC(O)CNC(=O)c1cn([C@H]2[C@@H](O)[C@@H](CO)O[C@@H](S[C@@H]3O[C@H](CO)[C@H](O)[C@H](n4cc(C(=O)NCC(C)O)nn4)[C@H]3O)[C@@H]2O)nn1 (stereo partly specified)    5
COc1cccc(-c2cn([C@H]3[C@@H](O)[C@@H](CO)O[C@@H](SC)[C@@H]3O)nn2)c1    2800
CNC(=O)c1cn([C@H]2[C@@H](O)[C@@H](CO)O[C@@H](S[C@@H]3O[C@H](CO)[C@H](O)[C@H](n4cc(C(=O)NC)nn4)[C@H]3O)[C@@H]2O)nn1    8
CCCCNC(=O)c1cn([C@H]2[C@@H](O)[C@@H](CO)O[C@@H](S[C@@H]3O[C@H](CO)[C@H](O)[C@H](n4cc(C(=O)NCCCC)nn4)[C@H]3O)[C@@H]2O)nn1    5.4
CS[C@@H]1O[C@H](CO)[C@H](O)[C@H](n2cc(C(=O)NCc3ccccc3)nn2)[C@H]1O    2100

// assay Galectin-7 (Homo sapiens, UniProt P47929), entry CO[C@@H]1O[C@H](CO)[C@@H](O[C@@H]2O[C@H](CO)[C@H](O)[C@H](O)[C@H]2O)[C@H](O)[C@H]1NC(C)=O , Kd value = 5500

// assay Galectin-7 (Homo sapiens, UniProt P47929), entry CO[C@@H]1O[C@H](CO)[C@H](O)[C@H](O)[C@H]1O , Kd value = 4800

// assay Galectin-7 (Homo sapiens, UniProt P47929), entry CS[C@@H]1O[C@H](CO)[C@H](O)[C@H](n2cc(-c3cccc4ccccc34)nn2)[C@H]1O , Kd value = 810

// assay Galectin-7 (Homo sapiens, UniProt P47929), entry CCCCNC(=O)c1cn([C@H]2[C@@H](O)[C@@H](CO)O[C@@H](SC)[C@@H]2O)nn1 , Kd value = 1100

* * *

// Kd lookup, one value per entry
# TESTED SYSTEM: Galectin-3 (Homo sapiens)
# Sequence (P17931 whole entry): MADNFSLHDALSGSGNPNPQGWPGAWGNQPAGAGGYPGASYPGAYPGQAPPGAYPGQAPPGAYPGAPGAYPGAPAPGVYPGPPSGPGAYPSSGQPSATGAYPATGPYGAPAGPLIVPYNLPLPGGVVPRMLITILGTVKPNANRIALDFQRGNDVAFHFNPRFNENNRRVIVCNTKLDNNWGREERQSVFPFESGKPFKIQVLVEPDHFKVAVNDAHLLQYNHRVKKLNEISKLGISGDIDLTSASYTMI
Only the number, expressed in µM, is required.

Some compounds with recorded Kd:
CS[C@@H]1O[C@H](CO)[C@H](O)[C@H](n2cc(-c3cccnc3)nn2)[C@H]1O    1900
CC(O)CNC(=O)c1cn([C@H]2[C@@H](O)[C@@H](CO)O[C@@H](S[C@@H]3O[C@H](CO)[C@H](O)[C@H](n4cc(C(=O)NCC(C)O)nn4)[C@H]3O)[C@@H]2O)nn1 (some centres undefined)    0.12
CS[C@@H]1O[C@H](CO)[C@H](O)[C@H](n2cc(-c3cccc4ccccc34)nn2)[C@H]1O    120

As a next step, examine the compound that follows.
// assay Galectin-3 (Homo sapiens), entry CS[C@@H]1O[C@H](CO)[C@H](O)[C@H](n2cc(-c3ccccc3)nn2)[C@H]1O , Kd value = 150

* * *

# TESTED SYSTEM: Galectin-3 (Homo sapiens)
Label criterion met when Kd < 100 µM; otherwise criterion not met.

CS[C@@H]1O[C@H](CO)[C@H](O)[C@H](n2cc(S(=O)(=O)c3ccc(C)cc3)nn2)[C@H]1O    criterion not met
O=C(NCCc1ccccc1)c1cn([C@H]2[C@@H](O)[C@@H](CO)O[C@@H](S[C@@H]3O[C@H](CO)[C@H](O)[C@H](n4cc(C(=O)NCCc5ccccc5)nn4)[C@H]3O)[C@@H]2O)nn1    criterion met
CCCCNC(=O)c1cn([C@H]2[C@@H](O)[C@@H](CO)O[C@@H](SC)[C@@H]2O)nn1    criterion not met
CCCCNC(=O)c1cn([C@H]2[C@@H](O)[C@@H](CO)O[C@@H](S[C@@H]3O[C@H](CO)[C@H](O)[C@H](n4cc(C(=O)NCCCC)nn4)[C@H]3O)[C@@H]2O)nn1    criterion met
CCCc1cn([C@H]2[C@@H](O)[C@@H](CO)O[C@@H](SC)[C@@H]2O)nn1    criterion not met
CS[C@@H]1O[C@H](CO)[C@H](O)[C@H](n2cc(C3(O)CCCCC3)nn2)[C@H]1O    criterion not met

[in] Strictly below 100 µM: is that where Kd of O=C(NCc1ccccc1)c1cn([C@H]2[C@@H](O)[C@@H](CO)O[C@@H](S[C@@H]3O[C@H](CO)[C@H](O)[C@H](n4cc(C(=O)NCc5ccccc5)nn4)[C@H]3O)[C@@H]2O)nn1 sits?
[out] criterion met

* * *

# TESTED SYSTEM: Galectin-8 (Homo sapiens, UniProt O00214)
# Sequence (O00214 whole entry): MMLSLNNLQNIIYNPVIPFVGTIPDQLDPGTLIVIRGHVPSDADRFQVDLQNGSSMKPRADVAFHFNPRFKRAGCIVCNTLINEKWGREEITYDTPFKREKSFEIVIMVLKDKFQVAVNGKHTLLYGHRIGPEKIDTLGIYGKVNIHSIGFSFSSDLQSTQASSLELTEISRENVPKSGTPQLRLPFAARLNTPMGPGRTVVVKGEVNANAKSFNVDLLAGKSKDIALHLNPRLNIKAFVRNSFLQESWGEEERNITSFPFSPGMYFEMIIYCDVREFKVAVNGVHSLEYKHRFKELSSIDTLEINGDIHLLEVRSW
pKd: −log10 of the molar value.
MEASUREMENT KIND: pKd

Some compounds with recorded pKd:
CNC(=O)c1cn([C@H]2[C@@H](O)[C@@H](CO)O[C@@H](S[C@@H]3O[C@H](CO)[C@H](O)[C@H](n4cc(C(=O)NC)nn4)[C@H]3O)[C@@H]2O)nn1    4.09
CS[C@@H]1O[C@H](CO)[C@H](O)[C@H](n2cc(C(=O)NCc3ccccc3)nn2)[C@H]1O    < 2.30

As a next step, examine the compound that follows.
// assay Galectin-8 (Homo sapiens, UniProt O00214), entry CCCc1cn([C@H]2[C@@H](O)[C@@H](CO)O[C@@H](SC)[C@@H]2O)nn1 , pKd value = < 2.30

* * *

Entries with their measured pKd, system Galectin-9 (Homo sapiens, UniProt O00182):
pKd here: minus log base 10 of the concentration, concentration in moles per litre.

Some compounds with recorded pKd:
C=CCNC(=O)c1cn([C@H]2[C@@H](O)[C@@H](CO)O[C@@H](S[C@@H]3O[C@H](CO)[C@H](O)[C@H](n4cc(C(=O)NCC=C)nn4)[C@H]3O)[C@@H]2O)nn1    6.13
CS[C@@H]1O[C@H](CO)[C@H](O)[C@H](n2nncc2S(=O)(=O)c2ccc(C)cc2)[C@H]1O    2.80
CNC(=O)c1cn([C@H]2[C@@H](O)[C@@H](CO)O[C@@H](O[C@H]3[C@H](O)[C@@H](NC(C)=O)[C@H](OC)O[C@@H]3CO)[C@@H]2O)nn1    4.14

// assay Galectin-9 (Homo sapiens, UniProt O00182), entry COc1cccc(-c2cn([C@H]3[C@@H](O)[C@@H](CO)O[C@@H](SC)[C@@H]3O)nn2)c1 , pKd value = 2.68

// assay Galectin-9 (Homo sapiens, UniProt O00182), entry CS[C@@H]1O[C@H](CO)[C@H](O)[C@H](n2cc(-c3cccc4ccccc34)nn2)[C@H]1O , pKd value = 3.16

// assay Galectin-9 (Homo sapiens, UniProt O00182), entry CS[C@@H]1O[C@H](CO)[C@H](O)[C@H](n2cc(S(=O)(=O)c3ccc(C)cc3)nn2)[C@H]1O , pKd value = 3.48

// assay Galectin-9 (Homo sapiens, UniProt O00182), entry CS[C@@H]1O[C@H](CO)[C@H](O)[C@H](n2cc(C(=O)NCCN3CCOCC3)nn2)[C@H]1O , pKd value = 3.33

// assay Galectin-9 (Homo sapiens, UniProt O00182), entry CS[C@@H]1O[C@H](CO)[C@H](O)[C@H](n2cc(-c3ccccc3)nn2)[C@H]1O , pKd value = 2.89

Just for reference, ChEMBL document CHEMBL1250422 is where these values come from.
